Biological target: T1, human ARG2 (Homo sapiens, UniProt P78540, E275H/R327K)
T1 construct: His10 (after a GGG linker) (C); made in house; host or cells: E. coli BL21 (DE3)
T1 sequence (P78540 23-354 E275H/R327K): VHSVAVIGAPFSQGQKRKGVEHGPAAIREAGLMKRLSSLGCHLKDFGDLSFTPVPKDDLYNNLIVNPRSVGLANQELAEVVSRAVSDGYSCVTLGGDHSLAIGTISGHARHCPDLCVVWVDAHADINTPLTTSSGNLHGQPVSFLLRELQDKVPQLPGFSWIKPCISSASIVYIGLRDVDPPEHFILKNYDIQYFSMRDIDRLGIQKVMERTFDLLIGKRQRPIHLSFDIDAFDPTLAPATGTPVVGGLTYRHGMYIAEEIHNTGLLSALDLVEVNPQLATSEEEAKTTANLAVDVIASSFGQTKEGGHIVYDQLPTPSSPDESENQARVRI
Assay: Bio-Layer Interferometry (OctetRED) binding kinetics, human ARG2
Conditions: second-generation Fab; extended assay: association 10 min, dissociation 40 min, 0.47 to 30 nM, streptavidin surface with bio-ARG2
Each entry below carries its reported ka.
Just the number please, in M⁻¹ s⁻¹, no unit attached.

Answered cases to consult:
1) C0021181: anti-ARG2 antibody, VH SEQ ID NO: 342, VL SEQ ID NO: 347 (antibody, listed as Homo sapiens, V domains shown, C0021181) VH: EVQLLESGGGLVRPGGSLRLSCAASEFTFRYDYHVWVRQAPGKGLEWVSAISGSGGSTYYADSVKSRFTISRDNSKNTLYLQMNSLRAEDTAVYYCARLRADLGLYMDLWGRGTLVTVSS VL: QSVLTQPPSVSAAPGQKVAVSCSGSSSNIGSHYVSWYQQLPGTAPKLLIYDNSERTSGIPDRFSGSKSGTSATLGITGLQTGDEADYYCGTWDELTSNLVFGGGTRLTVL
145000
2) C0021177: anti-ARG2 antibody, VH SEQ ID NO: 322, VL SEQ ID NO: 327 (antibody, listed as Homo sapiens, V domains shown, C0021177) VH: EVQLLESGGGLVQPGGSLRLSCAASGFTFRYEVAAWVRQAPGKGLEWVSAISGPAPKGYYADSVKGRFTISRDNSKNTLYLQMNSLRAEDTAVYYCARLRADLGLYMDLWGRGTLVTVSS VL: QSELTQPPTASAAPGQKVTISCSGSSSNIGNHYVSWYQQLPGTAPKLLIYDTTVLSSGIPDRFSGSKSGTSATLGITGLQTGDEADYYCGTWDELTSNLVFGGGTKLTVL
202000
3) C0021155: anti-ARG2 antibody, VH SEQ ID NO: 262, VL SEQ ID NO: 267 (antibody, listed as Homo sapiens, V domains shown, C0021155) VH: EVQLLESGGGLVQPGGSLRLSCEASGFTFRYDYHVWVRQAPGKGLEWVSAISGSGGSTYYADPVKGRFTISRDNSKNTLYLQMNSLRAEDTAVYYCARLRADLGLYMDLWGRGTLVTVSS VL: RSVLTQPPSVSAAPGQKVTISCSGSSSNIGNHYVSWYQQLPGTAPKLLIYDTTVLSSGIPDRFSGSKSGTSATLGITGLQTGDEADYYCGTWDELTSNLVFGGGTRLTVL
159000

Consider the record given below.
Inquiry: Given the entry C0021158 IgG: anti-ARG2 antibody, VH SEQ ID NO: 282, VL SEQ ID NO: 287; IgG and Fab versions carry these sequences (antibody, listed as Homo sapiens, V domains shown, C0021158 IgG) VH: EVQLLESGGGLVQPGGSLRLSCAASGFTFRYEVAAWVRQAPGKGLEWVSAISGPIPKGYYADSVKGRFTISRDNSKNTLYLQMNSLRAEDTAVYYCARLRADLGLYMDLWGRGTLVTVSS VL: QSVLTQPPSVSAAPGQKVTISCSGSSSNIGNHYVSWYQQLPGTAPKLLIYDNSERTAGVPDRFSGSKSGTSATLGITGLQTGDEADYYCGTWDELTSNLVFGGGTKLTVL , report its measured ka.
Reply text: 262000

Hey, just so you know, these numbers are from patent US20220403048A1.
